- TESTED_ON: Glutathione S-transferase omega-1 (Homo sapiens) (UniProt P78417)
- Sequence (P78417 whole entry, looked up): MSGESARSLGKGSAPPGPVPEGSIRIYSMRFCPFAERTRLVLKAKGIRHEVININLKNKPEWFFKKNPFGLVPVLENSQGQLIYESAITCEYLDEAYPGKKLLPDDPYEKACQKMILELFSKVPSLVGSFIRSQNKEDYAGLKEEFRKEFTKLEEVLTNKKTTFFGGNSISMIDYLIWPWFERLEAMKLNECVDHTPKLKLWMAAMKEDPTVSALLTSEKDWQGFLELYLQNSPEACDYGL
- TEST_METHOD_NOTES: inhibitors of recombinant GSTO1, primary screen, counter-screen for RBBP9 inhibitor project, biochemical, fluorescence polarization (AID 1974);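 further: 0% = GSTO1-1 with DMSO and 100% = wells lacking GSTO1-1 enzyme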
- ASSAY_SETUP: recombinant GSTO1, activity-based probe fluorescence polarization; at 5.96 µM
The campaign covered roughly 300,000 compounds. About 3,200 (1.1%) were called active.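 How the source made its calls: active means inhibition above the campaign mean inhibition plus 3 SD (cut at about 35% in these data); inactive means the rest.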 This is one part of a sample in which actives are shown more often than they occur.
Labels: active, inactive

{"COMPOUND": "O=C1c2ccccc2C(=O)c2c1cccc2N1CCN(C/C=C/c2ccccc2)CC1", "CAT": "inactive"}
{"COMPOUND": "CCOc1ccc(/C=N/NC(=O)CSc2ccccn2)cc1O", "CAT": "inactive"}
{"COMPOUND": "O=S(=O)(NCCS(=O)(=O)N1CCN(c2ccccc2)CC1)c1ccc(F)cc1", "CAT": "inactive"}
{"COMPOUND": "CS(=O)(=O)n1nc(-c2ccco2)nc1N", "CAT": "inactive"}
{"COMPOUND": "OCC[C@H]1C[C@H](O)[C@@H](O)[C@]2(CCCCO2)O1", "CAT": "inactive"}
{"COMPOUND": "O=C(NCCN1CCOCC1)c1cc(-c2cccs2)nc2ccccc12", "CAT": "inactive"}
{"COMPOUND": "O=C(Cc1ccc(Br)cc1)NCCN1CCOCC1", "CAT": "inactive"}
{"COMPOUND": "Cc1ccc2nc(-c3ccncc3)cc(C(=O)Nc3ccncc3)c2c1", "CAT": "inactive"}
{"COMPOUND": "CC(=O)Nc1ccc(C(=O)Nc2cccc(S(=O)(=O)NC3=NCCC3)c2)cc1", "CAT": "inactive"}
{"COMPOUND": "CC(Oc1cccc(Cl)c1)C(=O)Nc1ccc(S(=O)(=O)Nc2ncccn2)cc1 (stereo unspecified)", "CAT": "inactive"}
{"COMPOUND": "CN(CC(=O)Nc1cccc(F)c1)C(=O)C1CSC2(C)CCC(=O)N12 (stereo unspecified)", "CAT": "inactive"}
{"COMPOUND": "CCC1(CC)C(=O)C2=C3C1[C@H](C(=O)OC)C=C(C(=O)OC)C[C@H]3[C@H]1C(=O)N(Cc3ccccc3)C(=O)[C@H]1[C@H]2C (stereo partly specified)", "CAT": "inactive"}
{"COMPOUND": "O=C(Nc1ccc(S(=O)(=O)Nc2nccs2)cc1)c1cc(-c2ccncc2)nc2ccccc12", "CAT": "active"}
{"COMPOUND": "Cn1c(SCC(=O)N/N=C/c2ccc(O)c(O)c2)nc2ccccc21", "CAT": "active"}
{"COMPOUND": "O=C(Nc1nc(-c2ccco2)c(-c2ccco2)s1)c1ccco1", "CAT": "inactive"}
{"COMPOUND": "Cc1cc2nc3c(=O)n(Cc4ccccc4)c(=O)[nH]c3nc2cc1N", "CAT": "active"}
{"COMPOUND": "Cc1ccc(-c2nn(-c3ccc(F)cc3)cc2C(=O)NCC(c2cccs2)N2CCOCC2)cc1 (stereo unspecified)", "CAT": "inactive"}
{"COMPOUND": "CSc1nc2ccccc2c(=O)n1Cc1ccc(F)cc1", "CAT": "inactive"}
{"COMPOUND": "O=C(Cn1c(-c2ccccn2)nc2ccccc21)NCCN1CCOCC1", "CAT": "active"}
{"COMPOUND": "CCOc1cc(/C=N/NC(=O)c2cccc(S(=O)(=O)N3CCOCC3)c2)ccc1OCC(=O)N(C)C", "CAT": "inactive"}
{"COMPOUND": "COc1ccc(OCCCC(=O)OC(C)C(=O)Nc2ccccc2[N+](=O)[O-])cc1 (stereo unspecified)", "CAT": "inactive"}

---

- TESTED_ON: Glutathione S-transferase omega-1 (Homo sapiens) (UniProt P78417)
- TEST_METHOD_NOTES: inhibitors of recombinant GSTO1, primary screen, counter-screen for RBBP9 inhibitor project, biochemical, fluorescence polarization (AID 1974);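 further: 0% = GSTO1-1 with DMSO and 100% = wells lacking GSTO1-1 enzyme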
- ASSAY_SETUP: recombinant GSTO1, activity-based probe fluorescence polarization; at 5.96 µM; active compounds read high
In all, about 300,000 compounds went through this assay and about 3,200 (1.1%) were called active. The entries come from a sample that favours actives as a whole.

{"MOLECULE": "CC(=O)N1CCN(C(=O)c2cc(-c3ccc(C)o3)nc3ccccc23)CC1", "TESTED_ON": "Glutathione S-transferase omega-1 (Homo sapiens) (UniProt P78417)", "inhibition [%]": 5.42}
{"MOLECULE": "CCOC(=O)c1ccc(NC(=O)c2c(N)n(C)c(=O)[nH]c2=O)cc1", "TESTED_ON": "Glutathione S-transferase omega-1 (Homo sapiens) (UniProt P78417)", "inhibition [%]": -7.15}
{"MOLECULE": "O=S(=O)(Nc1ccc(OC(F)(F)F)cc1)c1cccc2nonc12", "TESTED_ON": "Glutathione S-transferase omega-1 (Homo sapiens) (UniProt P78417)", "inhibition [%]": 10.2}
{"MOLECULE": "NC(=O)NC(=O)C(OC(=O)CCNS(=O)(=O)c1ccccc1)c1ccccc1 (stereo unspecified)", "TESTED_ON": "Glutathione S-transferase omega-1 (Homo sapiens) (UniProt P78417)", "inhibition [%]": -0.72}
{"MOLECULE": "CC(=O)C12CC(C)=C(C)CC1CC1C3CCC4=CC(=O)CCC4(C)C3CCC12C (stereo unspecified)", "TESTED_ON": "Glutathione S-transferase omega-1 (Homo sapiens) (UniProt P78417)", "inhibition [%]": 0}
{"MOLECULE": "O=C(CN1CCC(NC(=O)Nc2ccccc2)CC1)Nc1cccc([N+](=O)[O-])c1", "TESTED_ON": "Glutathione S-transferase omega-1 (Homo sapiens) (UniProt P78417)", "inhibition [%]": 5.63}
{"MOLECULE": "CCC(Oc1ccccc1C)C(=O)Nc1ccc(S(=O)(=O)Nc2cc(C)on2)cc1 (stereo unspecified)", "TESTED_ON": "Glutathione S-transferase omega-1 (Homo sapiens) (UniProt P78417)", "inhibition [%]": -0.82}
{"MOLECULE": "O=C(NCCCN1CCCC1=O)c1ccc(S(=O)(=O)Nc2ccccc2)cc1", "TESTED_ON": "Glutathione S-transferase omega-1 (Homo sapiens) (UniProt P78417)", "inhibition [%]": 0.39}
{"MOLECULE": "CCc1nnc(NC(=O)CSc2nnc(Cc3ccccc3)n2-c2ccc(OC)cc2)s1", "TESTED_ON": "Glutathione S-transferase omega-1 (Homo sapiens) (UniProt P78417)", "inhibition [%]": -0.09}
{"MOLECULE": "O=S(=O)(Nc1ccc(O)c2ccccc12)c1ccc(OC(F)(F)F)cc1", "TESTED_ON": "Glutathione S-transferase omega-1 (Homo sapiens) (UniProt P78417)", "inhibition [%]": 67.3}
{"MOLECULE": "CCOc1ccc(NC(=O)CSc2nc3c(c(=O)n2-c2ccccc2OC)SCC3)cc1", "TESTED_ON": "Glutathione S-transferase omega-1 (Homo sapiens) (UniProt P78417)", "inhibition [%]": 9.5}
{"MOLECULE": "CN(C)CCn1c2c(c(SCC(=O)Nc3ccccc3C(F)(F)F)nc1=O)CCCC2", "TESTED_ON": "Glutathione S-transferase omega-1 (Homo sapiens) (UniProt P78417)", "inhibition [%]": -0.08}
{"MOLECULE": "CCN(CC(=O)Nc1c(F)cccc1F)C(=O)c1ccc(S(=O)(=O)N2CCCCC2)cc1", "TESTED_ON": "Glutathione S-transferase omega-1 (Homo sapiens) (UniProt P78417)", "inhibition [%]": 3.32}
{"MOLECULE": "Oc1cc2c(cc1O)CN(C(=S)NCCc1ccc(Cl)cc1)CCC2", "TESTED_ON": "Glutathione S-transferase omega-1 (Homo sapiens) (UniProt P78417)", "inhibition [%]": -0.15}
{"MOLECULE": "CCOC(=O)N1CCC(NC(=O)COc2cc(=O)n(C)c3ccccc23)CC1", "TESTED_ON": "Glutathione S-transferase omega-1 (Homo sapiens) (UniProt P78417)", "inhibition [%]": -3.88}
{"MOLECULE": "Cc1ccc(S(=O)(=O)N(C)c2ccc(OCC(=O)OCC(=O)N(CC#N)c3ccccc3)cc2)cc1", "TESTED_ON": "Glutathione S-transferase omega-1 (Homo sapiens) (UniProt P78417)", "inhibition [%]": 2.81}
{"MOLECULE": "O=c1[nH]c2ccccc2n2c(-c3ccccc3)nnc12", "TESTED_ON": "Glutathione S-transferase omega-1 (Homo sapiens) (UniProt P78417)", "inhibition [%]": 69.1}
{"MOLECULE": "COC(=O)c1cccc(NC(=O)CN2CCC(NC(=O)c3cc(OC)c(OC)c(OC)c3)CC2)c1", "TESTED_ON": "Glutathione S-transferase omega-1 (Homo sapiens) (UniProt P78417)", "inhibition [%]": 48.5}
{"MOLECULE": "NC(=O)C1=C[C@@H](c2ccc3c(c2)OCO3)C[C@@H](OCCCCO)O1", "TESTED_ON": "Glutathione S-transferase omega-1 (Homo sapiens) (UniProt P78417)", "inhibition [%]": 14.6}
{"MOLECULE": "Cc1cc(C)c(S(=O)(=O)NCC(c2ccc3c(c2)OCO3)N2CCOCC2)c(C)c1 (stereo unspecified)", "TESTED_ON": "Glutathione S-transferase omega-1 (Homo sapiens) (UniProt P78417)", "inhibition [%]": 3.98}
{"MOLECULE": "CC(=O)c1c(-c2ccccc2)c2ccccc2[nH]c1=O", "TESTED_ON": "Glutathione S-transferase omega-1 (Homo sapiens) (UniProt P78417)", "inhibition [%]": -2.94}

meta.source: PubChem BioAssay AID1974
